Target: ZNF721 full-length (Homo sapiens, UniProt Q8TF20-2 1-923)
Sequence (Q8TF20 other isoform, or with tags, fused parts or gaps): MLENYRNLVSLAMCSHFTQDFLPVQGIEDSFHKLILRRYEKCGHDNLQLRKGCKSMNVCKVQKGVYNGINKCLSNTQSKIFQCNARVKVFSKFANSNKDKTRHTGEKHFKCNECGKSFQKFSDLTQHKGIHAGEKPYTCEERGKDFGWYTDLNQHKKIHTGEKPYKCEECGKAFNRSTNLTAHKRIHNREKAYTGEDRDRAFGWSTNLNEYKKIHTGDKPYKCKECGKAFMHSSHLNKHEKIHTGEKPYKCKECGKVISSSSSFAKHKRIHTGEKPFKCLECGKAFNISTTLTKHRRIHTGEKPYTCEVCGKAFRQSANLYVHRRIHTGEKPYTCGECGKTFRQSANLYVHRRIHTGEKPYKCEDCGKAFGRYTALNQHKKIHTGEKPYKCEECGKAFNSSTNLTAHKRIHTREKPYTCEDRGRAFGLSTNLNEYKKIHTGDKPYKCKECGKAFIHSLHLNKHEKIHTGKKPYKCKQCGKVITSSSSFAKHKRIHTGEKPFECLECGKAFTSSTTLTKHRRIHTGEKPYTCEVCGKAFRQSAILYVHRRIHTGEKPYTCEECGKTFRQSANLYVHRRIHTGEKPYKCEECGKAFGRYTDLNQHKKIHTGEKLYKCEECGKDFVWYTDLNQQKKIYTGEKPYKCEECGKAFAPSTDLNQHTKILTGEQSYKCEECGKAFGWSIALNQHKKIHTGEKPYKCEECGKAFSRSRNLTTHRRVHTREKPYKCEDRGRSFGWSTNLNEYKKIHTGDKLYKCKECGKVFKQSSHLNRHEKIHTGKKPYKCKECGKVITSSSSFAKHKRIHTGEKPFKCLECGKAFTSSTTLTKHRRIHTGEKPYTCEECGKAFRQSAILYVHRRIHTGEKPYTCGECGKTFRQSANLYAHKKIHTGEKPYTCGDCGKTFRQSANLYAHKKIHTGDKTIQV
Experiment: HT-SELEX; 20 mM HEPES pH 7, 140 mM KCl, 5 mM NaCl, 1 mM K2HPO4, 2 mM MgSO4, 100 uM EGTA, ZnSO4, 0.1% Tween20; room temperature, 1 h; high values mean tight binding
Details: protein: ivt; tags: eGFP (N-terminal); dsDNA, one strand shown
Reported binding signal values for a set of sequences
measurementType: binding signal (relative 10-mer count)

INSERT INTO measurements (entrysequence, subjectoftest, measurementtype, endpointresult) VALUES
  ('ATGCTGTTTC', 'ZNF721 full-length (Homo sapiens, UniProt Q8TF20-2 1-923)', 'binding signal', 0.143),
  ('CCCACCCGCC', 'ZNF721 full-length (Homo sapiens, UniProt Q8TF20-2 1-923)', 'binding signal', 0.216),
  ('CGCCCCCCAC', 'ZNF721 full-length (Homo sapiens, UniProt Q8TF20-2 1-923)', 'binding signal', 0.156),
  ('CCTCGCCCCC', 'ZNF721 full-length (Homo sapiens, UniProt Q8TF20-2 1-923)', 'binding signal', 0.123),
  ('CCCCCCCCCC', 'ZNF721 full-length (Homo sapiens, UniProt Q8TF20-2 1-923)', 'binding signal', 0.116),
  ('AAAAAAGCAG', 'ZNF721 full-length (Homo sapiens, UniProt Q8TF20-2 1-923)', 'binding signal', 0.862),
  ('CTCCCCACCA', 'ZNF721 full-length (Homo sapiens, UniProt Q8TF20-2 1-923)', 'binding signal', 0.115),
  ('CCCCGCTCCC', 'ZNF721 full-length (Homo sapiens, UniProt Q8TF20-2 1-923)', 'binding signal', 0.139);

###

Biological target: ZNF721 DBD2 (Homo sapiens, UniProt Q8TF20-2 395-923)
Sequence (Q8TF20 383-911): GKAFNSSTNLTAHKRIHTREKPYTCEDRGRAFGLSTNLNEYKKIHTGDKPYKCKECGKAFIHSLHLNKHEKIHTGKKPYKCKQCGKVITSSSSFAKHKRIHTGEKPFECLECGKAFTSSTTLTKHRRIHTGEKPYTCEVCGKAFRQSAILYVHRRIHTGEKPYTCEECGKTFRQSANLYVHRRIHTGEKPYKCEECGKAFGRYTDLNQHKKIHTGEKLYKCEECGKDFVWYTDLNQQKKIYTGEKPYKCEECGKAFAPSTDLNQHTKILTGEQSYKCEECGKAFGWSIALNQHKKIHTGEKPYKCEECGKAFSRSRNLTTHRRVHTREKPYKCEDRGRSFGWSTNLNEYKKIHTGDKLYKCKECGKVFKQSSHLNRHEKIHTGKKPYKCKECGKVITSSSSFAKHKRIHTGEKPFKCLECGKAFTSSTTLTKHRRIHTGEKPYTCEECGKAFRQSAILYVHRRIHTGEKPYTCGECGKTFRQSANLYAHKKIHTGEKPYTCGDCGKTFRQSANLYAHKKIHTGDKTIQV
Experiment: HT-SELEX; 20 mM HEPES pH 7, 140 mM KCl, 5 mM NaCl, 1 mM K2HPO4, 2 mM MgSO4, 100 uM EGTA, ZnSO4, 0.1% Tween20; room temperature, 1 h; high values mean tight binding
Conditions: protein: ivt; tags: eGFP (N-terminal); dsDNA, one strand shown
Reported binding signal values for a set of sequences
measurementType: binding signal (relative 10-mer count)

INSERT INTO assay_data (entrysequence, measurementtype, readoutunit, endpointresult) VALUES
  ('AAAAACAGGG', 'binding signal', 'relative 10-mer count', 0.337),
  ('AGGGGGGAGG', 'binding signal', 'relative 10-mer count', 0.00384),
  ('CCCACCCCGA', 'binding signal', 'relative 10-mer count', 0.00192),
  ('CCCCCTTCCC', 'binding signal', 'relative 10-mer count', 0.00264);

###

Molecular target: ZNF721 full-length (Homo sapiens, UniProt Q8TF20-2 1-923)
Assay: HT-SELEX; 20 mM HEPES pH 7, 140 mM KCl, 5 mM NaCl, 1 mM K2HPO4, 2 mM MgSO4, 100 uM EGTA, ZnSO4, 0.1% Tween20; room temperature, 1 h; high values mean tight binding
Conditions: protein: ivt; tags: eGFP (N-terminal); dsDNA, one strand shown
measurementType: binding signal (relative 10-mer count)

INSERT INTO assay_data (entrysequence, measurementtype, endpointresult) VALUES
  ('CCACACCCCC', 'binding signal', 0.201),
  ('GGGGGTGGGA', 'binding signal', 0.205),
  ('ACAGCGTTAC', 'binding signal', 0.102),
  ('CACCAACCCC', 'binding signal', 0.123),
  ('CCCACCCCCG', 'binding signal', 0.214),
  ('CGGAAAAAAG', 'binding signal', 0.109),
  ('AAAAACAGTC', 'binding signal', 0.149),
  ('CTCCACCCCC', 'binding signal', 0.178),
  ('ACCACCACCC', 'binding signal', 0.189),
  ('CACCCACCTC', 'binding signal', 0.109),
  ('CACCCACACC', 'binding signal', 0.127),
  ('CCCACCGCCA', 'binding signal', 0.13),
  ('CAGTGTTTCC', 'binding signal', 0.252),
  ('CCTCCACCCA', 'binding signal', 0.111),
  ('CCCATCCACC', 'binding signal', 0.103),
  ('CACCCACCAC', 'binding signal', 0.196),
  ('CACCTCCCCC', 'binding signal', 0.188),
  ('CCCCGCCCCC', 'binding signal', 0.297),
  ('CCGAAAAAAA', 'binding signal', 0.115),
  ('CCCCGACCCC', 'binding signal', 0.24),
  ('CCCCCCCATC', 'binding signal', 0.115),
  ('AAAGCAGCGT', 'binding signal', 0.371),
  ('CCACCCACCA', 'binding signal', 0.237),
  ('CCCGCCCCTC', 'binding signal', 0.127),
  ('ACCGCCCCAC', 'binding signal', 0.103),
  ('CCCCCACCAA', 'binding signal', 0.115),
  ('AAGGCATACC', 'binding signal', 0.13),
  ('CCGCCCCCAC', 'binding signal', 0.178),
  ('ACCCCGACCC', 'binding signal', 0.102),
  ('AAAACAGCGG', 'binding signal', 0.134),
  ('CCCCACCATC', 'binding signal', 0.111),
  ('CTGTTTTTTA', 'binding signal', 0.204),
  ('GGTGGGGGGA', 'binding signal', 0.186),
  ('AAAAAAGCTG', 'binding signal', 0.303),
  ('CCCCAACCCA', 'binding signal', 0.13),
  ('GGGCGGGGGA', 'binding signal', 0.122),
  ('AAAAGCAGCC', 'binding signal', 0.136),
  ('CCCTTCCCCC', 'binding signal', 0.141),
  ('AAAGCAGCCC', 'binding signal', 0.134),
  ('ACAGTGTTGC', 'binding signal', 0.13),
  ('CCCCGACCAC', 'binding signal', 0.111),
  ('CCCGCCTCCC', 'binding signal', 0.183),
  ('GAGACACTGC', 'binding signal', 0.113),
  ('CCCCACCCCA', 'binding signal', 0.297),
  ('CCCGACCACC', 'binding signal', 0.125),
  ('CCACCCTCCA', 'binding signal', 0.123),
  ('CACCCTCCAC', 'binding signal', 0.106),
  ('CGCCCCTCCC', 'binding signal', 0.158),
  ('ACCACCCTCC', 'binding signal', 0.124),
  ('AAGCTATCCC', 'binding signal', 0.172),
  ('CCCTCCCTCC', 'binding signal', 0.178),
  ('GAAGTGTATC', 'binding signal', 0.279),
  ('CCTCCCCCGC', 'binding signal', 0.131),
  ('ACCCCCCACC', 'binding signal', 0.257),
  ('TAAAACAGCA', 'binding signal', 0.152),
  ('ACAGAGTACC', 'binding signal', 0.123),
  ('CCGTCCACCC', 'binding signal', 0.103),
  ('CCAACCACCC', 'binding signal', 0.175),
  ('CAGCGTCTCC', 'binding signal', 0.299),
  ('CGTCCCCCAC', 'binding signal', 0.104),
  ('CCCCCTGCCC', 'binding signal', 0.154),
  ('ATGTGTATGA', 'binding signal', 0.12),
  ('AGGTGGGGTG', 'binding signal', 0.114),
  ('CAGCGTTTCC', 'binding signal', 0.342),
  ('AAAACAGCAT', 'binding signal', 0.921),
  ('CGCTGTTTTA', 'binding signal', 0.126),
  ('ACCCCTCCCC', 'binding signal', 0.189),
  ('CAGAAAAAAG', 'binding signal', 0.147);

###

Reported binding signal values for a set of sequences
Biological target: ZNF721 DBD1 (Homo sapiens, UniProt Q8TF20-2 29-461)
Sequence (Q8TF20 17-449): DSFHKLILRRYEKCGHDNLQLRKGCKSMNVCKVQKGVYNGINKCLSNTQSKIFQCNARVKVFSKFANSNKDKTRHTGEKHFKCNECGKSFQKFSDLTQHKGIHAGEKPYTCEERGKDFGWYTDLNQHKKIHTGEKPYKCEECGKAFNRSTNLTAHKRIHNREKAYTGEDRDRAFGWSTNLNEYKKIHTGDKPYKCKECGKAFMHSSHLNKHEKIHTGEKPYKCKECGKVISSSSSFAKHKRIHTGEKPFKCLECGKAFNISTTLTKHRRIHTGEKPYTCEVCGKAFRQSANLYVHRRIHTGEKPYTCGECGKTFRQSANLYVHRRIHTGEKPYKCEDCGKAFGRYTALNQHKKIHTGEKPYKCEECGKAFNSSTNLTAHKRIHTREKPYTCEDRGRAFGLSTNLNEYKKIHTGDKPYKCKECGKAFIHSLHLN
Test: HT-SELEX; 20 mM HEPES pH 7, 140 mM KCl, 5 mM NaCl, 1 mM K2HPO4, 2 mM MgSO4, 100 uM EGTA, ZnSO4, 0.1% Tween20; room temperature, 1 h; high values mean tight binding
Conditions: protein: ivt; tags: eGFP (N-terminal); dsDNA, one strand shown
measurementType: binding signal (relative 10-mer count)

INSERT INTO measurements (entrysequence, endpointresult) VALUES
  ('CCCCCTACCC', 0.0072),
  ('CATCCCCCCC', 0.00463),
  ('CCCACACCCC', 0.00977),
  ('CCCCCCATCC', 0.00509),
  ('CCCAACCACC', 0.00752),
  ('CTCCCCCTCC', 0.00784),
  ('CCTTCCCCCC', 0.00472),
  ('CACACCCCCC', 0.00514),
  ('ACCCACCCGC', 0.00316),
  ('AGCTTCTTTC', 0.125),
  ('AAAAAGAAGC', 0.0301),
  ('CACCACCCGC', 0.00454),
  ('CACCCACCCA', 0.00835),
  ('CCACCCCCAC', 0.0121),
  ('CCACCCCAGC', 0.00372);
